Test system: Streptococcus pyogenes SSI-9
assay explanation: Antibacterial activity assay of bead-derived peptides (three concentrations)
Type: cell-based
Parameters: key: +++: inhibition by the 640-fold diluted peptide solution; ++: inhibition by the 160-fold diluted solution; +: inhibition by the 40-fold diluted solution; -: no inhibition
details: S. pyogenes, bead-derived peptide solution, three concentrations
Where a SMILES comes first, the peptide text is derived from it. [ ]: non-standard residue; d: D form. The star is where a group is joined. NHCH2CH2OH = OCCN*; For = O=C*
property label: antibacterial activity

CC(C)C[C@@H](NC(=O)[C@H](Cc1c[nH]c2ccccc12)NC(=O)[C@H](NC(=O)[C@@H](NC(=O)[C@H](NC(=O)[C@H](C)NC(=O)[C@H](NC(=O)[C@H](C)NC(=O)CNC(=O)[C@@H](NC=O)C(C)C)C(C)C)C(C)C)C(C)C)C(C)C)C(=O)N[C@@H](Cc1c[nH]c2ccccc12)C(=O)N[C@H](CC(C)C)C(=O)N[C@@H](Cc1c[nH]c2ccccc12)C(=O)N[C@@H](C(=O)N[C@@H](Cc1c[nH]c2ccccc12)C(=O)NCCO)C(C)C [compound 5742] (For-VGA[dV]A[dV]V[dV]W[dL]W[dL]W[dV]W-NHCH2CH2OH) :: ++

====

Tested on: P388 mouse leukemia cells
details: 92 h
Where a SMILES comes first, the peptide text is derived from it. [ ]: non-standard residue; d: D form. The star is where a group is joined. NHCH2CH2OH = OCCN*; For = O=C*
Parameter cell viability/%: see the listing below.

Given the entry CC(C)C[C@@H](NC(=O)[C@H](Cc1c[nH]c2ccccc12)NC(=O)[C@H](NC(=O)[C@H](Cc1c[nH]c2ccccc12)NC(=O)[C@@H](CC(C)C)NC(=O)[C@@H](NC(=O)[C@H](NC(=O)[C@H](C)NC(=O)[C@H](NC(=O)[C@H](C)NC(=O)CNC(=O)[C@@H](NC=O)C(C)C)[C@H](C)O)C(C)C)C(C)C)C(C)C)C(=O)N[C@@H](Cc1c[nH]c2ccccc12)C(=O)N[C@@H](C(=O)N[C@@H](Cc1c[nH]c2ccccc12)C(=O)NCCO)C(C)C [compound 4187] (For-VGA[dT]A[dV]V[dL]W[dV]W[dL]W[dV]W-NHCH2CH2OH) , what cell viability/% was observed with P388 mouse leukemia cells?
95.1%

Can you look up cell viability/% on P388 mouse leukemia cells for CC(C)C[C@@H](NC(=O)[C@H](C)NC(=O)CNC(=O)[C@@H](NC=O)C(C)C)C(=O)N[C@@H](C)C(=O)N[C@H](CC(C)C)C(=O)N[C@H](C(=O)N[C@H](CC(C)C)C(=O)N[C@@H](Cc1c[nH]c2ccccc12)C(=O)N[C@H](CC(C)C)C(=O)N[C@@H](Cc1c[nH]c2ccccc12)C(=O)N[C@@H](C(=O)N[C@@H](Cc1c[nH]c2ccccc12)C(=O)N[C@@H](C(=O)N[C@@H](Cc1c[nH]c2ccccc12)C(=O)NCCO)C(C)C)[C@H](C)O)C(C)C [compound 12989] (For-VGA[dL]A[dL]V[dL]W[dL]W[dT]W[dV]W-NHCH2CH2OH) ?
100.0%

Please provide the recorded cell viability/% for CNC(=O)C[C@@H](NC(=O)[C@@H](NC(=O)[C@@H](CC(C)C)NC(=O)[C@H](C)NC(=O)[C@H](NC(=O)[C@H](C)NC(=O)CNC(=O)[C@@H](NC=O)C(C)C)C(C)C)C(C)C)C(=O)N[C@@H](Cc1c[nH]c2ccccc12)C(=O)N[C@@H](C(=O)N[C@@H](Cc1c[nH]c2ccccc12)C(=O)N[C@H](CC(C)C)C(=O)N[C@@H](Cc1c[nH]c2ccccc12)C(=O)N[C@H](CC(C)C)C(=O)N[C@@H](Cc1c[nH]c2ccccc12)C(=O)NCCO)C(C)C [compound 12975] (For-VGA[dV]A[dL]V[dD](NHMe)W[dV]W[dL]W[dL]W-NHCH2CH2OH) , tested on P388 mouse leukemia cells.
86.0%

Short answer please: cell viability/%, P388 mouse leukemia cells, entry CC(C)C[C@@H](NC(=O)[C@H](C)NC(=O)[C@H](NC(=O)[C@H](C)NC(=O)CNC(=O)[C@@H](NC=O)C(C)C)[C@H](C)O)C(=O)N[C@H](C(=O)N[C@@H](C(=O)N[C@@H](Cc1c[nH]c2ccccc12)C(=O)N[C@@H](C(=O)N[C@@H](Cc1c[nH]c2ccccc12)C(=O)N[C@H](CC(C)C)C(=O)N[C@@H](Cc1c[nH]c2ccccc12)C(=O)N[C@H](CC(C)C)C(=O)N[C@@H](Cc1c[nH]c2ccccc12)C(=O)NCCO)C(C)C)C(C)C)C(C)C [compound 4652] (For-VGA[dT]A[dL]V[dV]W[dV]W[dL]W[dL]W-NHCH2CH2OH)
100.0%

// lookup cell viability/% | system=P388 mouse leukemia cells | key= CC(C)C[C@@H](NC(=O)[C@H](Cc1c[nH]c2ccccc12)NC(=O)[C@H](NC(=O)[C@H](Cc1c[nH]c2ccccc12)NC(=O)[C@H](NC(=O)[C@@H](NC(=O)[C@H](NC(=O)[C@H](C)NC(=O)[C@H](NC(=O)[C@H](C)NC(=O)CNC(=O)[C@@H](NC=O)C(C)C)[C@H](C)O)C(C)C)C(C)C)C(C)C)C(C)C)C(=O)N[C@@H](Cc1c[nH]c2ccccc12)C(=O)N[C@@H](C(=O)N[C@@H](Cc1c[nH]c2ccccc12)C(=O)NCCO)C(C)C [compound 10653] (For-VGA[dT]A[dV]V[dV]W[dV]W[dL]W[dV]W-NHCH2CH2OH)
44.1%

Lookup: cell viability/% / P388 mouse leukemia cells / CC(C)C[C@@H](NC(=O)[C@H](C)NC(=O)CNC(=O)[C@@H](NC=O)C(C)C)C(=O)N[C@@H](C)C(=O)N[C@H](CC(C)C)C(=O)N[C@H](C(=O)N[C@@H](C(=O)N[C@@H](Cc1c[nH]c2ccccc12)C(=O)N[C@@H](C(=O)N[C@@H](Cc1c[nH]c2ccccc12)C(=O)N[C@@H](C(=O)N[C@@H](Cc1c[nH]c2ccccc12)C(=O)N[C@@H](C(=O)N[C@@H](Cc1c[nH]c2ccccc12)C(=O)NCCO)C(C)C)C(C)C)C(C)C)C(C)C)C(C)C [compound 10536] (For-VGA[dL]A[dL]V[dV]W[dV]W[dV]W[dV]W-NHCH2CH2OH)
100.0%

Item CNC(=O)C[C@@H](NC(=O)[C@@H](NC(=O)[C@H](NC(=O)[C@H](C)NC(=O)[C@H](NC(=O)[C@H](C)NC(=O)CNC(=O)[C@@H](NC=O)C(C)C)C(C)C)C(C)C)C(C)C)C(=O)N[C@@H](Cc1c[nH]c2ccccc12)C(=O)N[C@@H](C(=O)N[C@@H](Cc1c[nH]c2ccccc12)C(=O)N[C@H](CC(C)C)C(=O)N[C@@H](Cc1c[nH]c2ccccc12)C(=O)N[C@H](CC(C)C)C(=O)N[C@@H](Cc1c[nH]c2ccccc12)C(=O)NCCO)C(C)C [compound 4049] (For-VGA[dV]A[dV]V[dD](NHMe)W[dV]W[dL]W[dL]W-NHCH2CH2OH) with P388 mouse leukemia cells - cell viability/%?
100.0%

Hello, I am looking for reported cell viability/% with P388 mouse leukemia cells for CNC(=O)C[C@@H](NC(=O)[C@@H](NC(=O)[C@@H](CC(C)C)NC(=O)[C@H](C)NC(=O)[C@@H](CC(C)C)NC(=O)[C@H](C)NC(=O)CNC(=O)[C@@H](NC=O)C(C)C)C(C)C)C(=O)N[C@@H](Cc1c[nH]c2ccccc12)C(=O)N[C@H](CC(C)C)C(=O)N[C@@H](Cc1c[nH]c2ccccc12)C(=O)N[C@H](CC(C)C)C(=O)N[C@@H](Cc1c[nH]c2ccccc12)C(=O)N[C@H](CC(C)C)C(=O)N[C@@H](Cc1c[nH]c2ccccc12)C(=O)NCCO [compound 2444] (For-VGA[dL]A[dL]V[dD](NHMe)W[dL]W[dL]W[dL]W-NHCH2CH2OH) . Could you help?
100.0%

====

System: Streptococcus pyogenes SSI-9
assay explanation: Antibacterial activity assay of bead-derived peptides (three concentrations)
Format: cell-based
Set-up: key: +++: inhibition by the 640-fold diluted peptide solution; ++: inhibition by the 160-fold diluted solution; +: inhibition by the 40-fold diluted solution; -: no inhibition
details: S. pyogenes, bead-derived peptide solution, three concentrations
Where a SMILES comes first, the peptide text is derived from it. [ ]: non-standard residue; d: D form. The star is where a group is joined. NHCH2CH2OH = OCCN*; For = O=C*
property label: antibacterial activity

CC(C)C[C@@H](NC(=O)[C@H](C)NC(=O)CNC(=O)[C@@H](NC=O)C(C)C)C(=O)N[C@@H](C)C(=O)N[C@@H](C(=O)N[C@H](C(=O)N[C@@H](C(=O)N[C@@H](Cc1c[nH]c2ccccc12)C(=O)N[C@H](CC(C)C)C(=O)N[C@@H](Cc1c[nH]c2ccccc12)C(=O)N[C@H](CC(C)C)C(=O)N[C@@H](Cc1c[nH]c2ccccc12)C(=O)N[C@H](CC(C)C)C(=O)N[C@@H](Cc1c[nH]c2ccccc12)C(=O)NCCO)[C@H](C)O)C(C)C)C(C)C [compound 6766] (For-VGA[dL]A[dV]V[dT]W[dL]W[dL]W[dL]W-NHCH2CH2OH) :: +
CC(C)C[C@@H](NC(=O)[C@H](C)NC(=O)[C@H](NC(=O)[C@H](C)NC(=O)CNC(=O)[C@@H](NC=O)C(C)C)C(C)C)C(=O)N[C@H](C(=O)N[C@H](CC(C)C)C(=O)N[C@@H](Cc1c[nH]c2ccccc12)C(=O)N[C@@H](C(=O)N[C@@H](Cc1c[nH]c2ccccc12)C(=O)N[C@@H](C(=O)N[C@@H](Cc1c[nH]c2ccccc12)C(=O)N[C@H](CC(C)C)C(=O)N[C@@H](Cc1c[nH]c2ccccc12)C(=O)NCCO)C(C)C)[C@H](C)O)C(C)C [compound 7325] (For-VGA[dV]A[dL]V[dL]W[dT]W[dV]W[dL]W-NHCH2CH2OH) :: -

Value source: paper PMC7531004
